test method notes: Vorinostat serum pharmacokinetics
Assay type: in vivo, human
cond: human, oral, 200 mg, Mean Cmax (SD), Concurrent schedule, 200 mg tid days 1–14, Day 4 (n = 7)
measured attribute: Cmax (ng/mL)
# number only, unit ng/mL dropped from output

Which Cmax value is on record for O=C(CCCCCCC(=O)Nc1ccccc1)NO [vorinostat, suberoylanilide hydroxamic acid] ?
353

====

test method notes: Vorinostat serum pharmacokinetics
Assay type: in vivo, human
cond: human, oral, 200 mg, Mean AUCinf (SD), Concurrent schedule, 200 mg bid days 1–21, Day 15 (n = 7)
measured attribute: AUC(0-inf) (ng·h/mL)
Report only the number, with the unit ng·h/mL understood.

# query: AUC(0-inf) of entry O=C(CCCCCCC(=O)Nc1ccccc1)NO [vorinostat, suberoylanilide hydroxamic acid]
1010

====

test method notes: Vorinostat serum pharmacokinetics
Format: in vivo, human
cond: human, oral, 200 mg, Mean AUCt (SD), Sequential schedule, 200 mg bid days 6–21 (n = 4), day 9 of cycle 1
measured attribute: AUC(0-t)

Any idea what AUC(0-t) was measured for O=C(CCCCCCC(=O)Nc1ccccc1)NO [vorinostat, suberoylanilide hydroxamic acid] ?
556 ng·h/mL

====

test method notes: Vorinostat serum pharmacokinetics
Type: in vivo, human
cond: human, oral, 200 mg, Mean Cmax (SD), Concurrent schedule, 200 mg bid days 1–21, Day 4 (n = 10)
measured attribute: Cmax (ng/mL)
Respond with the bare value in ng/mL.

Quick one: Cmax for O=C(CCCCCCC(=O)Nc1ccccc1)NO [vorinostat, suberoylanilide hydroxamic acid] ?
252

====

test method notes: Vorinostat serum pharmacokinetics
Assay type: in vivo, human
cond: human, oral, 100 mg, Mean AUCinf (SD), Concurrent schedule, 100 mg bid days 1–21, Day 15 (n = 1)
measured attribute: AUC(0-inf) (ng·h/mL)
Number only, in ng·h/mL; omit the unit.

Item O=C(CCCCCCC(=O)Nc1ccccc1)NO [vorinostat, suberoylanilide hydroxamic acid] has what recorded AUC(0-inf)?
609

====

test method notes: Decitabine plasma pharmacokinetics
Format: in vivo, human
cond: human, intravenous, 20 mg/m^2/day, Mean Cmax (SD), Concurrent schedule: decitabine 20 mg/m^2/day (n = 6), Day 5, cycle 1
measured attribute: Cmax (ng/mL)
Report the figure in ng/mL without appending any unit label.

Bench note: what Cmax did Nc1ncn([C@H]2C[C@H](O)[C@@H](CO)O2)c(=O)n1 [decitabine, 5-aza-2’-deoxycytidine] show?
236

====

test method notes: Decitabine plasma pharmacokinetics
Format: in vivo, human
cond: human, intravenous, 20 mg/m^2/day, Mean AUCinf (SD), Sequential schedule: decitabine 20 mg/m^2/day (n = 3), Day 5, cycle 1
measured attribute: AUC(0-inf) (ng·h/mL)
Response body: numeric value in ng·h/mL, unit text excluded.

Would you mind telling me what AUC(0-inf) value was observed for `Nc1ncn([C@H]2C[C@H](O)[C@@H](CO)O2)c(=O)n1` ?
111

====

test method notes: Decitabine plasma pharmacokinetics
Assay type: in vivo, human
cond: human, intravenous, 20 mg/m^2/day, Mean AUCinf (SD), Sequential schedule: decitabine 20 mg/m^2/day (n = 3), Day 1, cycle 1
measured attribute: AUC(0-inf) (ng·h/mL)
Numbers only here, please. The scale is ng·h/mL.

Please give the measured AUC(0-inf) for this molecule: `Nc1ncn([C@H]2C[C@H](O)[C@@H](CO)O2)c(=O)n1`
105

Reference source for all entries: paper PMC4688006
